test system: SAS cells; assay: SAS CTG proliferation assay (120 h) (HNSCC, wt amplified); assay type: cell-based
pIC50: −log10 of the molar value.
Answer FALSE if pIC50 is under 6, and TRUE if it is 6 or more.

Dear colleague, could you confirm whether C[C@H](Oc1cc(N2CCN(C)CC2)nc(-c2noc3c2CCC[C@@]32CCCc3sc(N)c(C#N)c32)n1)[C@@H]1CCCN1[C@@H]1CCOC1 [II-39] has pIC50 at or above 6? FALSE

Threshold query (pIC50 >= 6) on C[C@H](Oc1cc(N2CCOC2=O)nc(-c2noc3c2CCC[C@@]32CCCc3sc(N)c(C#N)c32)n1)[C@@H]1CCCN1C [II-143] TRUE

Is pIC50 for C[C@H](Oc1cc(-n2cc3ccn([C@@H]4CCOC4)c(=O)c3n2)nc(-c2noc3c2CCC[C@@]32CCCc3sc(N)c(C#N)c32)n1)[C@@H]1CCCN1C [II-203] at or above 6? TRUE

Test whether the compound C[C@H](Oc1cc(-c2ccn(CC(C)(C)O)n2)nc(-c2onc3c2CCC[C@@]32CCCc3sc(N)c(C#N)c32)n1)[C@@H]1CCCN1C [I-26] records pIC50 of 6 or higher. TRUE

Decide: is the reported value of pIC50 for C[C@H](Oc1cc(-n2ccc(C#N)n2)nc(-c2noc3c2CCC[C@@]32CCCc3sc(N)c(C#N)c32)n1)[C@@H]1CCCN1C [II-102] equal to or greater than 6? TRUE

Quick check, pIC50 >= 6? CO[C@H]1CCN(C)[C@@H]1[C@H](C)Oc1cc(N2CCN(C)C3(CC3)C2)nc(-c2noc3c2CCC[C@@]32CCCc3sc(N)c(C#N)c32)n1 [II-186] TRUE

For this compound, is measured pIC50 6 or higher? C[C@H]1CNCCCN1c1cc(-n2ccnc2)nc(-c2noc3c2CCC[C@@]32CCCc3sc(N)c(C#N)c32)n1 [II-142] FALSE

# bool: pIC50 of C[C@H](Oc1cc(-n2ccnc2Cl)nc(-c2noc3c2CCC[C@@]32CCCc3sc(N)c(C#N)c32)n1)[C@@H]1CCCN1C [II-93] >= 6 TRUE

Assess whether reported pIC50 for C[C@H](Oc1nc(-c2noc3c2CCC[C@@]32CCCc3sc(N)c(C#N)c32)cc(N2C[C@H](C)N[C@@H](C)C2)n1)[C@@H]1CCCN1C [II-46] sits at 6 or higher. TRUE

Please indicate if the recorded pIC50 for CN[C@H]1CCN(c2cc(O[C@@H](C)[C@@H]3CCCN3C)nc(-c3noc4c3CCC[C@@]43CCCc4sc(N)c(C#N)c43)n2)C1 [II-35] meets or exceeds 6. FALSE

# bool: pIC50 of C[C@H](Oc1cc(-n2ccc(C3(O)COC3)n2)nc(-c2noc3c2CCC[C@@]32CCCc3sc(N)c(C#N)c32)n1)[C@@H]1CCCN1C [II-189] >= 6 TRUE

----------
biological target: KRAS (WT)::SOS1 (Homo sapiens (Human), UniProt P01116, C118S); experiment: KRAS::SOS1 AlphaScreen binding assay, KRAS WT
Sequence (P01116 other isoform, or with tags, fused parts or gaps C118S): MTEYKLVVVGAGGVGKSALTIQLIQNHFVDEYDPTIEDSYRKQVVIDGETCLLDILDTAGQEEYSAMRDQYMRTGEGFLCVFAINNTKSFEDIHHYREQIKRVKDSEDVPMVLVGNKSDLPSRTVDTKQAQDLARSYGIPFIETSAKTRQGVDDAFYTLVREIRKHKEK
Readout Type: pIC50
Just so you know, pIC50 here is -log10 of the concentration in molar units; reply with that number alone.

Find the measured pIC50 of C[C@H](Oc1cc(N2CCN(C)C3(CCOC3)C2)nc(-c2noc3c2CCC[C@@]32CCCc3sc(N)c(C#N)c32)n1)[C@@H]1C[C@@H](F)CN1C (stereo partly drawn) [II-151] with KRAS (WT)::SOS1 (Homo sapiens (Human), UniProt P01116, C118S) as test system. 8.10

Answer briefly: pIC50 recorded on KRAS (WT)::SOS1 (Homo sapiens (Human), UniProt P01116, C118S) for C[C@H](Oc1cc(N2CCN(C)CC2)nc(-c2noc3c2CCC[C@@]32CCCc3sc(N)c(C#N)c32)n1)[C@@H]1CCCN1C [II-55] 8.00

Name the recorded pIC50 of C[C@H](Oc1cc(-n2cc3c(n2)CN(C)C3)nc(-c2noc3c2CCC[C@@]32CCCc3sc(N)c(C#N)c32)n1)[C@@H]1CCCN1C [II-174] , assay system KRAS (WT)::SOS1 (Homo sapiens (Human), UniProt P01116, C118S). 8.40

Fetch value of pIC50 on KRAS (WT)::SOS1 (Homo sapiens (Human), UniProt P01116, C118S) for C[C@H](Oc1cc(N2CCN(C)C3(CC3)C2)nc(-c2noc3c2CCC[C@@]32CCCc3sc(N)c(C#N)c32)n1)[C@@H]1C[C@@H](F)CN1C [II-149] . 7.92

# return pIC50 for [2H]C([2H])([2H])N1C[C@H](F)C[C@H]1[C@H](C)Oc1cc(N2CCNC3(CC3)C2)nc(-c2noc3c2CCC[C@@]32CCCc3sc(N)c(C#N)c32)n1 [II-208] , test system: KRAS (WT)::SOS1 (Homo sapiens (Human), UniProt P01116, C118S) 8.40

Provide pIC50, system KRAS (WT)::SOS1 (Homo sapiens (Human), UniProt P01116, C118S), entry C[C@H](Oc1cc(-n2ccc(C3(O)COC3)n2)nc(-c2noc3c2CCC[C@@]32CCCc3sc(N)c(C#N)c32)n1)[C@@H]1CCCN1C [II-189] 8.40

----------
system: KRAS G12C-dependent Ba/F3 cells; test: Ba/F3 proliferation assay, KRAS G12C; format: cell-based; details: Mus musculus, BaF3, 72 h, AlamarBlue
Readout Type: IC50 (nM)
Write the answer as a number in nM, unit excluded.

Retrieve IC50 measured for CO[C@@H]1C[C@@H]([C@H](C)Oc2cc(-c3cnn(C)n3)nc(-c3noc4c3CCC[C@@]43CCCc4sc(N)c(C#N)c43)n2)N(C)C1 [II-62] and print it. 34

Supply measured IC50 of C[C@H](Oc1cc(N2CCCC3(COC3)C2)nc(-c2noc3c2CCC[C@@]32CCCc3sc(N)c(C#N)c32)n1)[C@@H]1CCCN1C [II-72] in your reply. 22

Please supply the value of reported IC50 for the item C[C@H](Oc1cc(N2CCNC3(CCC3)C2)nc(-c2onc3c2CCC[C@@]32CCCc3sc(N)c(C#N)c32)n1)[C@@H]1CCCN1C [I-3] 345

----------
assay: Solubility measurement (DMSO solution method), McIlvaine buffer pH 4.5 or 6.8; assay type: physicochemical; conditions: aqueous buffer, kinetic from dmso stock; McIlvaine buffer pH 4.5; DMSO stock diluted to 250 μM; 24 h shaking at ambient temperature; read-out: solubility pH 4.5
Readout Type: solubility at 24 h (µg/mL)
Supply the numeric figure in µg/mL, leaving out any unit text.

Name the recorded solubility at 24 h of the item C[C@H](NC(=O)c1ccn(-c2cc(O[C@@H](C)[C@@H]3CCCN3C)nc(-c3noc4c3CCC[C@@]43CCCc4sc(N)c(C#N)c43)n2)n1)c1ccccn1 in your answer. 73

Report solubility at 24 h for C[C@H](Oc1cc(-c2ccn(C)n2)nc(-c2noc3c2CCC[C@@]32CCCc3sc(N)c(C#N)c32)n1)[C@@H]1CCCN1C 107

Supply measured solubility at 24 h of Cc1cc(-c2onc3c2CCC[C@@]32CCCc3sc(N)c(C#N)c32)nc(N2CCCNC[C@@H]2C)n1 in your reply. 3

----------
system: KRAS G12C-dependent Ba/F3 cells; assay: Ba/F3 proliferation assay, KRAS G12C; format: cell-based; settings: Mus musculus, BaF3, 72 h, AlamarBlue
pIC50: −log10 of the molar value.
Decide using pIC50: a value greater than or equal to 8 is Condition met, a smaller one is Condition not met.

Answer whether pIC50 of C[C@H](Oc1cc(-n2ccsc2=O)nc(-c2noc3c2CCC[C@@]32CCCc3sc(N)c(C#N)c32)n1)[C@@H]1CCCN1C [II-135] is greater than or equal to 8. Condition met

Could you verify whether the entry C[C@H](Oc1cc(N2CCNC3(COC3)C2)nc(-c2noc3c2CCC[C@@]32CCCc3sc(N)c(C#N)c32)n1)[C@@H]1C[C@@H](F)CN1C [II-150] shows pIC50 of no less than 8? Condition not met

Has C[C@H](Oc1cc(N2CCNC3(CCCC3)C2)nc(-c2noc3c2CCC[C@@]32CCCc3sc(N)c(C#N)c32)n1)[C@@H]1CCCN1C [II-41] a recorded pIC50 greater than or equal to 8? Condition not met

----------
test system: KRAS G12C-dependent Ba/F3 cells; test: Ba/F3 proliferation assay, KRAS G12C; type: cell-based; details: Mus musculus, BaF3, 72 h, AlamarBlue
IC50 strictly less than 7 nM = true. Otherwise false.

Criterion: IC50 strictly below 7 nM. Is it met by COc1c(O[C@@H](C)[C@@H]2CCCN2C)nc(-c2noc3c2CCC[C@@]32CCCc3sc(N)c(C#N)c32)nc1-n1ccc(C(N)=O)n1 [II-159] ? false

Is 7 nM strictly greater than the compound's reported IC50? compound: C[C@H](Oc1cc(-n2ccc(C(=O)NC3COC3)n2)nc(-c2noc3c2CCC[C@@]32CCCc3sc(N)c(C#N)c32)n1)[C@@H]1CCCN1C [II-25] true

Does the reported IC50 of Cc1cn(-c2cc(O[C@@H](C)[C@@H]3CCCN3C)nc(-c3noc4c3CCC[C@@]43CCCc4sc(N)c(C#N)c43)n2)nn1 [II-106] stay below 7 nM? false

IC50 strictly < 7 nM for this compound? C[C@H](Oc1cc(-c2ccn(C)n2)nc(-c2noc3c2CCC[C@@]32CCCc3sc(N)c(C#N)c32)n1)[C@@H]1C[C@H](F)CN1C [II-144] true
